- System: T-24
- run.description: Induction of histone H4 acetylation in human T24 cells after 16 hrs by immunoblot relative to MS-275
- Format: functional, cell-based
- assay.setup: T-24, 16 h
For each record, write down the corresponding pEC50.
As a rule, pEC50 stands for the negative log10 of the concentration, concentration in M.

pEC50 lookup needed for Cc1nc2ccccc2c(=O)n1Cc1ccc(C(=O)Nc2ccccc2N)cc1 , thanks. 6.00

Cool, now CCn1c(=O)n(Cc2ccc(C(=O)Nc3ccccc3N)cc2)c(=O)c2sccc21 6.00

----------
Would you mind telling me the reported pEC50 of each entry?
- System: T-24
- run.description: Induction of histone H4 acetylation in human T24 cells after 16 hrs by immunoblot relative to MS-275
- Assay type: functional, cell-based
- assay.setup: T-24, 16 h
Please report pEC50 as the negative decimal logarithm of the molar concentration, giving only the number.

Item under review: COc1ccc(Cn2c(=O)n(Cc3ccc(C(=O)Nc4ccccc4N)cc3)c(=O)c3ccccc32)cc1 . Reported pEC50? 6.00

Again, but for CCn1c(=O)n(Cc2ccc(C(=O)Nc3ccccc3N)cc2)c(=O)c2ccccc21 6.00

For Nc1ccccc1NC(=O)c1ccc(Cn2c(=O)[nH]c3ccccc3c2=O)cc1 then? 6.00

----------
- Test system: HMEC
- run.description: Antiproliferative activity against human HMEC cells by MTT assay
- Format: cell-based
I'd appreciate it if you could supply pIC50 values for the items below.
Please treat pIC50 as minus the base-10 logarithm of the molar concentration.

If you can, please state the reported pIC50 value of Nc1ccccc1NC(=O)c1ccc(Cn2c(=O)[nH]c3ccccc3c2=O)cc1 . 4.74

And the next one, Nc1ccccc1NC(=O)c1ccc(CC2COc3ccccc3C2)cc1 (stereo not given) ? 4.64

Now this one: Nc1ccccc1NC(=O)c1ccc(CN2Cc3ccccc3C2=O)cc1 4.43

Nc1ccccc1NC(=O)c1ccc(CC2Cc3ccccc3C2=O)cc1 (stereo not given) , same question. 5.10

Param item: Nc1ccccc1NC(=O)c1ccc(Cc2coc3ccccc3c2=O)cc1 5.05

Also check Nc1ccccc1NC(=O)c1ccc(CC2COc3ccccc3C2=O)cc1 (stereo not given) 5.22

Check Nc1ccccc1NC(=O)c1ccc(Cn2cnc3ccccc3c2=O)cc1 too. 4.55

----------
- System: HMEC
- run.description: Antiproliferative activity against human HMEC cells by MTT assay
- Type: cell-based
Please provide measured IC50 for the entries that follow.

Query: IC50; subject: Nc1ccccc1NC(=O)c1ccc(Cn2c(=O)c3ccccc3n(CCN3CCOCC3)c2=O)cc1 > 25 µM

Okay, and CN(C)CCn1c(=O)n(Cc2ccc(C(=O)Nc3ccccc3N)cc2)c(=O)c2ccccc21 ? > 25 µM

Next compound: Nc1ccccc1NC(=O)c1ccc(Cn2cnc3ccsc3c2=O)cc1 > 50 µM

Cool, now COc1ccc(Cn2c(=O)n(Cc3ccc(C(=O)Nc4ccccc4N)cc3)c(=O)c3ccccc32)cc1 > 25 µM

Next record, please: Cn1c(=O)n(Cc2ccc(C(=O)Nc3ccccc3N)cc2)c(=O)c2ccccc21 > 42 µM

Then this compound: CCn1c(=O)n(Cc2ccc(C(=O)Nc3ccccc3N)cc2)c(=O)c2sccc21 > 50 µM

What about this compound? Nc1ccccc1NC(=O)c1ccc(CN2C(=O)c3ccccc3C2=O)cc1 > 50 µM

And then Cc1nc2ccccc2c(=O)n1Cc1ccc(C(=O)Nc2ccccc2N)cc1 , what is it? > 50 µM
